Test system: U251 CNS
Experiment: NCI-60 one-dose screen, 48 h
Settings: 10 µM unless noted
This is part of a sample that, as a whole, favours compounds with a hit. Of some 83,000 tested, about 20% had one in any assay. Activity calls are given as the source filed them. The calls were made as follows: active = growth percent below 10; inactive = the rest.
Choose the fitting class; nothing outside YES (active), NO (inactive) is accepted.

>  <given-smiles>
C[C@]12CC[C@H]3[C@@H](CC=C4C[C@@H](O)CC[C@@]43C)[C@@H]1CC[C@@H]2[C@](C)(O)CCc1cccnc1

>  <target-system>
U251 CNS

>  <assigned-label>
NO

$$$$
>  <given-smiles>
O=C1[C@@H]2Cc3c([nH]c4ccccc34)[C@@H](c3ccc(Cl)cc3)N2C(=O)CN1C1CCN(Cc2ccccc2)CC1

>  <target-system>
U251 CNS

>  <assigned-label>
NO

$$$$
>  <given-smiles>
Clc1ccc(CSc2nnc(-c3ccc(Cl)cc3)n2-c2ccccc2)cc1

>  <target-system>
U251 CNS

>  <assigned-label>
NO

$$$$
>  <given-smiles>
CCOC(=O)c1cnc2c(-c3ccc(Cl)c(Cl)c3)cnn2c1

>  <target-system>
U251 CNS

>  <assigned-label>
NO

$$$$
>  <given-smiles>
O=C(/C=C/c1cccc(F)c1)c1cccc(OCCCOc2cccc(C(=O)/C=C/c3cccc(F)c3)c2)c1

>  <target-system>
U251 CNS

>  <assigned-label>
NO

$$$$
>  <given-smiles>
CN(C)CCCOc1ccc(C(=C(c2ccccc2)C2CCCC2)c2ccc(OCCCN(C)C)cc2)cc1

>  <target-system>
U251 CNS

>  <assigned-label>
YES

$$$$
>  <given-smiles>
COc1cc(-c2nc(-c3ccccc3)[nH]c2-c2ccnc(NCCCNS(=O)(=O)c3cccc(F)c3)n2)ccc1F

>  <target-system>
U251 CNS

>  <assigned-label>
NO

$$$$
>  <given-smiles>
CCNCCOc1ccc(/C(=C(/CC)c2ccc(Cl)cc2)c2ccc(OCCCN(C)C)cc2)cc1

>  <target-system>
U251 CNS

>  <assigned-label>
YES

$$$$

query: Assay outcome for "C#CCOc1ccccc1/C=N/Nc1nc(-c2ccc(Cl)cc2)cs1" : what was it?
result: NO

query: Assay outcome for "O=C(CSc1nnc(-c2cccs2)n1-c1ccccc1)Nc1ccccc1F" : what was it?
result: NO

query: Assay outcome for "COc1cc2cc(Oc3ccc(NC(=O)Nc4ccc(F)c(C(F)(F)F)c4)cc3)c(C)nc2cc1OCCN(C)C" : what was it?
result: NO

query: Assay outcome for "COc1cc2oc(-c3cccc(NC(=O)c4cccc([N+](=O)[O-])c4)c3)cc(=O)c2c(OC)c1OC" : what was it?
result: NO

query: Assay outcome for "COc1cccc(N2CCN(C3=C(Cl)C(=O)c4ncccc4C3=O)CC2)c1" : what was it?
result: NO

query: Assay outcome for "CCN(CC)c1ccc(/C=N/NC(=O)c2ccc(NS(C)(=O)=O)cc2)cc1" : what was it?
result: NO

Entry source: PubChem BioAssay (NCI)
